test: Ratio of drug level in brain to plasma in rat at 1 mg/kg, po after 5 mins; assay type: ADME, organism-based; design: dose 1 mg/kg, route oral
Property Measured: Kp at 5 min

Q: Query (molecule): Cc1cc(F)ccc1[C@H]1CNCCN1C(=O)N1CCNCC1c1cc(C(F)(F)F)cc(C(F)(F)F)c1 (stereo in doubt; 5b) ; field requested: Kp at 5 min
Ans: 0.9

====

experiment: AUC (0 to 8 hrs) in rat at 1 mg/kg, po; assay type: ADME, organism-based; set-up: time < 8 hr, dose 1 mg/kg, route oral; conditions: plasma
Property Measured: AUC(0-t) at 8 h (ng·h/mL)
# value in ng·h/mL; strip the unit string

{"Compound": "Cc1cc(F)ccc1[C@H]1CNCCN1C(=O)N(C)C1(c2cc(C(F)(F)F)cc(C(F)(F)F)c2)CC1", "Measurement Unit": "ng·h/mL", "AUC(0-t) at 8 h": 108}

Q: Query (compound): Cc1cc(F)ccc1[C@H]1CNCCN1C(=O)N1CCNCC1c1cc(C(F)(F)F)cc(C(F)(F)F)c1 (stereo in doubt; 5b) ; field requested: AUC(0-t) at 8 h
Ans: 145
